Just for reference, ChEMBL document CHEMBL1795324 is where these values come from.

Let's go through some IC50 measurements on Acetylcholinesterase (Electrophorus electricus) together.
Sequence (O42275 whole entry): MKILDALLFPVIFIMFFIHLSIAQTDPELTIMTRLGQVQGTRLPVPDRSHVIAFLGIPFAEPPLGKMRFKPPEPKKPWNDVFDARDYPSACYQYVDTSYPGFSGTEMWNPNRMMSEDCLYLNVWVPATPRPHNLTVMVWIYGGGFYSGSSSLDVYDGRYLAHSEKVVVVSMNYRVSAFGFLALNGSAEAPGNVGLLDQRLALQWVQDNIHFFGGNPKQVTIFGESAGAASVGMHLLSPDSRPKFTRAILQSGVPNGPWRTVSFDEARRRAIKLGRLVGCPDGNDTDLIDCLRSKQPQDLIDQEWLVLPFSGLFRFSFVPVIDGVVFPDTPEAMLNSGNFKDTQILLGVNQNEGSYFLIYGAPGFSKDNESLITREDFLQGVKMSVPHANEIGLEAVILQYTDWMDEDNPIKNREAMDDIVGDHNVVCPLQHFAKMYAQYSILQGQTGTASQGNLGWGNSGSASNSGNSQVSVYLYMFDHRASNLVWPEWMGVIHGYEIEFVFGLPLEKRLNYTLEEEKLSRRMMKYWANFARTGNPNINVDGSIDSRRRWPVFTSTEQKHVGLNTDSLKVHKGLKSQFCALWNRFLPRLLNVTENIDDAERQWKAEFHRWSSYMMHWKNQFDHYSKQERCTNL
Write the value in µM as a bare number.

Would you please look over these solved cases?
INSERT INTO results (mol, unit_symbol, data_value) VALUES
  ('CCCCCC/C=C\CCCCCCCCCc1cccc(OC)c1C(=O)OC', 'µM', 303),
  ('CCCCC[C@H](O)/C=C/CCCCCCCc1cccc(O)c1C(=O)O', 'µM', 3.18),
  ('CCCC/C=C\CCCCCCCCCc1cccc(OC)c1C(=O)OC', 'µM', 358);

Observed IC50, Acetylcholinesterase (Electrophorus electricus), `CCCCC[C@H](O)/C=C/CCCCCCCc1cccc(OC)c1C(=O)OC` : 342

Observed IC50, Acetylcholinesterase (Electrophorus electricus), `CCCCCC/C=C\CCCCCCCCCc1cccc(O)c1` : 13.1

Observed IC50, Acetylcholinesterase (Electrophorus electricus), `CCCC/C=C\CCCCCCCCCc1cccc(O)c1` : 17.2

Observed IC50, Acetylcholinesterase (Electrophorus electricus), `CCCC/C=C\CCCCCCCCCc1cccc(OC)c1` : 178
